Catalogue of variants with associated self-cleavage
B1: CPEB3 Ribozyme (parent)
chain: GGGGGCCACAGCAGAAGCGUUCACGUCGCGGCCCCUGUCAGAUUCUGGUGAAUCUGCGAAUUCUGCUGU

Variants of: B1
Test: self-cleavage, relative activity (ratio to wild type); higher = more cleavage; co-transcriptional
Give the value as a plain number.

Challenge: Return value of self-cleavage for input C22A C39A , no commentary.
Response given: 0.161
